# Tested on: Yap1 mRNA
# Assay protocol: Antisense inhibition of human Yap1 in SNU-449 cells by modified oligonucleotides, single dose (Example 5, RTS36584)
# Type: cell-based
# Test conditions: Table 46; Yap1 mRNA as percent of untreated control, SNU-449 cells, single dose
Strand notation (5' to 3'): a small letter for the sugar, then the base; units joined by * are phosphorothioate-linked, units joined directly phosphodiester-linked; [ ] holds rarer units or linkages, { } end groups; capitals alone tell only the bases. e = 2'-O-(2-methoxyethyl) (MOE); k = constrained ethyl (cEt); [5mC] = 5-methylcytosine; d = 2'-deoxy (DNA)
Respond with T for YAP1 (% UT) values of 50 % UT and above, F for values below.

# Substance, Assigned category
measured = [
    ("1198834 (kA*kA*dG*d[5mC]*dA*d[5mC]*dT*dT*dT*dT*dA*k[5mC]*eA*kT*eT*kA; antisense) [Compound 1198834]", "T"),
    ("1198816 (antisense kT*kT*dA*dG*dA*dG*dT*dA*dT*dG*dT*kG*eG*k[5mC]*eA*kA) [Compound 1198816]", "F"),
    ("1198822 (kT*kA*dT*dA*dA*d[5mC]*dT*dG*dG*dG*d[5mC]*kA*eA*kA*eT*kT; antisense) [Compound 1198822]", "T"),
    ("1198837 (kT*kT*dG*dG*dA*dA*dG*dA*dT*d[5mC]*dT*kG*eA*kA*eA*k[5mC]; antisense) [Compound 1198837]", "T"),
    ("1198883 (kA*kA*dG*dT*dA*dA*dG*dG*dT*dT*dT*k[5mC]*e[5mC]*k[5mC]*eA*kG; antisense) [Compound 1198883]", "F"),
    ("1198838 (kT*kT*dT*dG*dG*dA*dA*dG*dA*dT*d[5mC]*kT*eG*kA*eA*kA; antisense) [Compound 1198838]", "T"),
]

* * *

# Test system: Yap1 mRNA
# Assay protocol: Antisense inhibition of human Yap1 in SNU-449 cells by modified oligonucleotides, single dose (Example 5, RTS36584)
# Type: cell-based
# Test conditions: Table 45; Yap1 mRNA as percent of untreated control, SNU-449 cells, single dose
Strand notation (5' to 3'): a small letter for the sugar, then the base; units joined by * are phosphorothioate-linked, units joined directly phosphodiester-linked; [ ] holds rarer units or linkages, { } end groups; capitals alone tell only the bases. k = constrained ethyl (cEt); [5mC] = 5-methylcytosine; d = 2'-deoxy (DNA)
A collection of substances and their measured YAP1 (% UTC)

# Substance, YAP1 (% UTC)
measured = [
    ("1198963 (kT*kT*dA*dA*dA*dG*dT*dG*dT*dA*dT*kG*dT*k[5mC]*dA*kG; antisense) [Compound 1198963]", 27),
    ("1198910 (kA*kG*dG*dT*dA*dT*dA*dA*d[5mC]*dT*dG*kG*dG*k[5mC]*dA*kA; antisense) [Compound 1198910]", 40),
    ("1198935 (kG*kA*dT*dT*dT*dA*dG*dG*dA*dT*dG*k[5mC]*dA*kT*dG*kG; antisense) [Compound 1198935]", 18),
]

* * *

# System: Yap1 mRNA
# Assay protocol: Dose-dependent inhibition of human Yap1 in A-431 cells (Example 7, 10,000 cells per well, RTS36584)
# Type: cell-based
# Test conditions: Table 59, 4000.00 nM, free uptake, A-431 cells 10,000 cells per well, 48 hours
Strand notation (5' to 3'): a small letter for the sugar, then the base; units joined by * are phosphorothioate-linked, units joined directly phosphodiester-linked; [ ] holds rarer units or linkages, { } end groups; capitals alone tell only the bases. k = constrained ethyl (cEt); [5mC] = 5-methylcytosine; d = 2'-deoxy (DNA)
Quantity kind: Yap1 mRNA, % UTC (% UTC)

# Substance, Quantity kind, Meas value
measured = [
    ("958533 (kG*k[5mC]*kA*dT*dA*dG*dA*dA*dG*dT*dA*dG*dG*kA*kG*k[5mC]; antisense) [compound 958533]", "Yap1 mRNA, % UTC", 12),
    ("958763 (k[5mC]*kA*k[5mC]*dA*dA*dT*dA*d[5mC]*dA*dA*dG*dA*dT*kG*k[5mC]*kA; antisense) [compound 958763]", "Yap1 mRNA, % UTC", 8),
    ("958668 (kG*kT*kG*dA*dT*d[5mC]*dT*dG*dT*dG*dA*dG*dA*kG*kG*kT; antisense) [compound 958668]", "Yap1 mRNA, % UTC", 5),
    ("958518 (k[5mC]*k[5mC]*kA*d[5mC]*dA*dG*dT*dA*dA*dT*dA*dG*d[5mC]*kT*k[5mC]*kT; antisense) [compound 958518]", "Yap1 mRNA, % UTC", 4),
    ("958597 (k[5mC]*k[5mC]*k[5mC]*dA*dA*dT*dA*d[5mC]*dA*dA*d[5mC]*d[5mC]*dA*kA*kG*kA; antisense) [compound 958597]", "Yap1 mRNA, % UTC", 20),
    ("958562 (k[5mC]*kA*kT*dT*dG*dA*dA*dA*dG*dA*d[5mC]*d[5mC]*d[5mC]*kT*kT*kA; antisense) [compound 958562]", "Yap1 mRNA, % UTC", 28),
    ("715483 (k[5mC]*kT*k[5mC]*dT*dT*dT*dG*dG*dA*dA*dA*d[5mC]*d[5mC]*kA*kT*kT) [compound 715483]", "Yap1 mRNA, % UTC", 4),
    ("958623 (kT*kT*kG*dA*dT*dA*dT*dT*d[5mC]*d[5mC]*dG*d[5mC]*dA*kT*kT*kG; antisense) [compound 958623]", "Yap1 mRNA, % UTC", 10),
    ("958603 (kT*kG*kG*dT*dA*dT*dG*dA*dA*dT*dT*d[5mC]*dT*kG*kA*kA; antisense) [compound 958603]", "Yap1 mRNA, % UTC", 4),
    ("958767 (kA*k[5mC]*kG*dA*dA*dT*dA*dA*dG*dG*d[5mC]*dA*dT*kT*kA*kG; antisense) [compound 958767]", "Yap1 mRNA, % UTC", 10),
    ("958573 (kG*kG*k[5mC]*dA*dA*dA*dT*dT*dA*dT*dA*dG*dG*k[5mC]*kA*k[5mC]; antisense) [compound 958573]", "Yap1 mRNA, % UTC", 8),
    ("958498 (kG*kA*kG*dT*dA*dT*dG*dT*dG*dG*d[5mC]*dA*dA*kT*kA*kA; antisense) [compound 958498]", "Yap1 mRNA, % UTC", 2),
    ("958563 (kA*kG*k[5mC]*dT*dT*dT*dT*dG*d[5mC]*d[5mC]*dA*dG*dG*kA*kG*kA; antisense) [compound 958563]", "Yap1 mRNA, % UTC", 10),
]

* * *

# Assay protocol: Tolerability in Balb/c mice, plasma chemistry markers (Example 12)
# Format: in vivo
# Test conditions: 50 mg/kg subcutaneously twice a week for four weeks
Strand notation (5' to 3'): a small letter for the sugar, then the base; units joined by * are phosphorothioate-linked, units joined directly phosphodiester-linked; [ ] holds rarer units or linkages, { } end groups; capitals alone tell only the bases. k = constrained ethyl (cEt); [5mC] = 5-methylcytosine; d = 2'-deoxy (DNA)
Respond with t for ALT values of 1000 U/L and above, f for values below.

# Substance, Assigned category
records = [
    ("958721 (kG*kT*kA*dG*dT*dA*dT*dA*dA*dT*dG*dA*dG*kT*kT*kA; antisense) [compound 958721]", "f"),
    ("958554 (kA*kA*k[5mC]*d[5mC]*dA*dT*dT*dA*dT*dT*dA*d[5mC]*dT*k[5mC]*k[5mC]*kT; antisense) [compound 958554]", "f"),
    ("958499 (ATTAGAGTATGTGGCA; 3-10-3 cEt gapmer, further chemistry not given here) [compound 958499]", "f"),
    ("958553 (k[5mC]*k[5mC]*kA*dT*dT*dA*dT*dT*dA*d[5mC]*dT*d[5mC]*d[5mC]*kT*kG*kT; antisense) [compound 958553]", "f"),
    ("958509 (kA*kT*kG*dT*dT*dA*dT*dG*dT*dT*dT*dG*dG*kG*kT*kG; antisense) [compound 958509]", "t"),
    ("958498 (kG*kA*kG*dT*dA*dT*dG*dT*dG*dG*d[5mC]*dA*dA*kT*kA*kA; antisense) [compound 958498]", "t"),
    ("958725 (kG*kT*k[5mC]*dA*dG*dT*dT*dA*dT*d[5mC]*d[5mC]*dT*dA*kT*k[5mC]*k[5mC]; antisense) [compound 958725]", "t"),
    ("958729 (kG*kT*k[5mC]*dA*dG*dT*dT*dA*dT*d[5mC]*d[5mC]*dT*dA*kT*k[5mC]*kT; antisense) [compound 958729]", "t"),
    ("958540 (kA*kT*kT*d[5mC]*dT*dA*dT*d[5mC]*d[5mC]*dA*dG*dG*dG*kT*k[5mC]*kA; antisense) [compound 958540]", "t"),
    ("958454 (antisense kG*kG*kA*dA*dT*dG*dA*dG*d[5mC]*dT*d[5mC]*dG*dA*kA*k[5mC]*kA) [compound 958454]", "t"),
    ("958736 (kG*kT*kG*dA*dT*dA*dT*dG*dG*dA*dT*dT*d[5mC]*kT*kG*kT; antisense) [compound 958736]", "t"),
    ("958375 (antisense kA*kA*kA*dG*d[5mC]*d[5mC]*dT*dT*dA*dG*dA*dG*dT*k[5mC]*kA*kA) [compound 958375]", "t"),
    ("958590 (kA*kG*kG*dT*dA*dT*dA*dA*d[5mC]*dT*dG*dG*dG*k[5mC]*kA*kA) [compound 958590]", "f"),
    ("958603 (kT*kG*kG*dT*dA*dT*dG*dA*dA*dT*dT*d[5mC]*dT*kG*kA*kA; antisense) [compound 958603]", "t"),
]
